- Test description: AUC (0 to 24 hrs) in monkeypox virus infected cynomolgus monkey at 30 mg/kg, po qd for 14 days administered under fed condition measured after 7 days
- Type: ADME, organism-based, Macaca fascicularis
- Set-up: time < 24 hr, dose 30 mg/kg, route oral
- Assay setup: plasma
Readout type: AUC at 24 h (ng·h/mL)
Express your answer in ng·h/mL, writing the number without its unit.

The compound listed as O=C(NN1C(=O)[C@@H]2[C@@H]3C=C[C@@H]([C@H]4C[C@@H]34)[C@@H]2C1=O)c1ccc(C(F)(F)F)cc1 [TECOVIRIMAT] shows AUC at 24 h equal to 20700

----------
- Test description: AUC (0 to 24 hrs) in human at 6.7 mg/kg, po qd for 21 days administered under fed condition measured after 21 days
- Format: ADME, organism-based
- Design: time < 24 hr, dose 6.7 mg/kg, route oral
- Assay setup: plasma
Readout type: AUC at 24 h (ng·h/mL)
Express your answer in ng·h/mL, writing the number without its unit.

The molecule listed as O=C(NN1C(=O)[C@@H]2[C@@H]3C=C[C@@H]([C@H]4C[C@@H]34)[C@@H]2C1=O)c1ccc(C(F)(F)F)cc1 [TECOVIRIMAT] shows AUC at 24 h equal to 16200

----------
- Test description: AUC (0 to 24 hrs) in human at 13.3 mg/kg, po administered as single dose under fed condition measured after 1 day
- Format: ADME, organism-based
- Parameters: time < 24 hr, dose 13.3 mg/kg, route oral
- Assay setup: plasma
Readout type: AUC(0-t) at 24 h (ng·h/mL)
Express your answer in ng·h/mL, writing the number without its unit.

The molecule listed as `O=C(NN1C(=O)[C@@H]2[C@@H]3C=C[C@@H]([C@H]4C[C@@H]34)[C@@H]2C1=O)c1ccc(C(F)(F)F)cc1` shows AUC(0-t) at 24 h equal to 21000

----------
- Test description: AUC (0 to 24 hrs) in human at 6.7 mg/kg, po administered as single dose under fed condition measured after 1 day
- Assay type: ADME, organism-based
- Set-up: time < 24 hr, dose 6.7 mg/kg, route oral
- Assay setup: plasma
Readout type: AUC(0-t) at 24 h (ng·h/mL)
Express your answer in ng·h/mL, writing the number without its unit.

The compound listed as O=C(NN1C(=O)[C@@H]2[C@@H]3C=C[C@@H]([C@H]4C[C@@H]34)[C@@H]2C1=O)c1ccc(C(F)(F)F)cc1 [TECOVIRIMAT] shows AUC(0-t) at 24 h equal to 13100
